Values were extracted from PubChem BioAssay (NCI).

Measured growth, listed per entry.
Tested on: HT29 colon
Assay: NCI-60 one-dose screen, 48 h (100 = growth as untreated, 0 = no growth, -100 = all killed)
Assay context: 10 µM unless noted
Compounds without any hit were thinned out: in the full panel of roughly 83,000, 20% have a hit.
Quantity name: growth (%)

[[record]]
sample_smiles = "COc1cc2c(cc1OCCCCCn1c3ccccc3c3ccccc31)N=C[C@@H]1CCCN1C2=O"
quantity_name = "growth"
endpoint_result = -45.8

[[record]]
sample_smiles = "Clc1cc(Cl)cc(-c2ccc(-c3ccc(/C=N/NC4=NCCN4)cc3)s2)c1"
quantity_name = "growth"
endpoint_result = 0.288

[[record]]
sample_smiles = "CC(=O)Oc1csc(N(C(C)=O)c2cc(C(=O)O)cc(C(=O)O)c2)n1"
quantity_name = "growth"
endpoint_result = 104

[[record]]
sample_smiles = "COc1cccc(/C=C/C(=O)Nc2cc(OC)c3c(c2)OCO3)c1"
quantity_name = "growth"
endpoint_result = 92.1

[[record]]
sample_smiles = "O=C(O)c1nc(-c2ccccc2)oc1N1CCOCC1"
quantity_name = "growth"
endpoint_result = 108

[[record]]
sample_smiles = "CCCCCCN1CSC(=S)N(CCCCCC)C1"
quantity_name = "growth"
endpoint_result = 115

[[record]]
sample_smiles = "O=C1NN(C(=O)c2ccc(Cl)cc2)C(c2ccccc2)=N/C1=C\\c1cn(-c2ccccc2)nc1-c1ccccc1"
quantity_name = "growth"
endpoint_result = 87.8

[[record]]
sample_smiles = "N#Cc1ccc(N2Cc3ccccc3OC3=C2C(=O)c2c(O)ccc(O)c2C3=O)cc1"
quantity_name = "growth"
endpoint_result = -62.4

[[record]]
sample_smiles = "O=C1CS/C(=N\\Nc2cc(=O)[nH]c3ccccc23)N1c1ccccc1"
quantity_name = "growth"
endpoint_result = 98.6

[[record]]
sample_smiles = "COc1ccc(-c2ccc(C)n2-c2ccc(-c3nc4cc(Cl)ccc4s3)cc2)cc1"
quantity_name = "growth"
endpoint_result = 100

